Source of measurements: patent US20210255193A1

Reported isoTOP-ABPP ratio (R) at liganded lysine P50583_K89 by item:
target: NUDT2 Bis(5-nucleosyl)-tetraphosphatase (Homo sapiens); construct: isoTOP-ABPP experiments performed in cell lysates (in vitro); endogenous in cells; assay: competitive isoTOP-ABPP; assay type: binding; conditions: 50 uM, in vitro, sol, 231
Sequence (P50583 whole entry): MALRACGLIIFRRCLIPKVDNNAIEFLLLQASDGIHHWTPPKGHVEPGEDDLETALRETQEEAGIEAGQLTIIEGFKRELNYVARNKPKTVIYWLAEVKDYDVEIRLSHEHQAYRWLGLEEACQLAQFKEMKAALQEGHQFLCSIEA
QUANTITY_MEASURED: isoTOP-ABPP ratio (R) at liganded lysine P50583_K89

COMPOUND | OBSERVED_MEASUREMENT
O=C(CCc1coc2cc(F)ccc2c1=O)Oc1ccc([N+](=O)[O-])cc1[N+](=O)[O-] | 0.9
O=C(Oc1ccc([N+](=O)[O-])cc1[N+](=O)[O-])C(c1ccccc1)(c1ccccc1)c1ccccc1 [fragment 42, 2,4-Dinitrophenyl 2,2,2-triphenylacetate] | 1.0
O=C(Oc1ccc([N+](=O)[O-])cc1[N+](=O)[O-])C1CCN(C(=O)OCc2ccccc2)CC1 | 1.0
